- Read-out: Peroxisomal acyl-coenzyme A oxidase 1 (ACOX1) gene, ACOX1 (gene 51)
- METHOD_DESCRIPTION: LTEA_HepaRG_ACOX1: Life Technologies and Expression Analysis (LTEA) Assay for Peroxisomal acyl-coenzyme A oxidase 1 (ACOX1) gene using HepaRG (AID 2283467)
- RECORDED_CONDITIONS: mRNA level, 48 h; actives raise or lower the signal
The source made the active and inactive calls. Rule for the calls: active = hit-call score of the fitted dose curve at least 0.9, where 1 is the maximum; inactive = score below 0.9.
Form entry, call: pick from 1.0 for active, 0.0 for inactive

Hi, sorry to bother you, what did the test record for `CC[C@H]1OC(=O)[C@H](C)[C@@H](O[C@H]2C[C@@](C)(OC)[C@@H](O)[C@H](C)O2)[C@H](C)[C@@H](O[C@@H]2O[C@H](C)C[C@H](N(C)C)[C@H]2O)[C@](C)(O)C[C@@H](C)C(=O)[C@H](C)[C@@H](O)[C@]1(C)O` ? 0.0

Which outcome did this test record for the compound `O=C(O)CCN(C1(C(=O)NO)CCCC1)S(=O)(=O)c1ccc(Oc2ccc(F)cc2)cc1` ? 0.0

Given CC(C)CC(C)(O)C#CC(C)(O)CC(C)C (centres undefined) , state the outcome it received in this test. 0.0

I'd appreciate the recorded outcome for `CCCN(C1CCN(C(=O)C2CCNCC2)CC1)[C@@H]1CCc2ccc(OC)cc2C1` from this test. 1.0

Per the assay record, what outcome was assigned to CC/C(=C\C(=N/O)C(N)=O)C(C)[N+](=O)[O-] (centres undefined) ? 0.0

Test call for this compound, please: `C1N2CN3CN1CN(C2)C3` 0.0

Status in this test for `CCOc1cccc(-n2cc(C(=O)N3CCN(c4cc(C(=O)O)c5ccccc5c4)CC3)nc2-c2ccc(C)cc2)c1` ? 1.0

What is the recorded call for this compound in the test? O=C(O)CC(O)C(=O)O (centres undefined) 0.0

Record lookup: outcome of this test for `CCN(C(=O)c1cc(C)cc(OC[C@H](C)Nc2ccncc2)c1)C(C)C` ? 1.0

Hello, I am checking results. What call was entered for `COC(=O)CC(=O)OC` ? 0.0

Which outcome was assigned to `CN(C)c1ccc(Cc2ccc(N(C)C)cc2)cc1` in this test? 0.0

For `CCCCCCCCCCCCc1ccccc1` , which call appears in the assay record? 0.0

Record request — test call for `COC(=O)c1ccccc1O` 0.0

Which outcome was entered for the compound `Cn1cnc([N+](=O)[O-])c1Sc1ncnc2nc[nH]c12` in this test? 0.0

Tell me the assay call for `CCOCCOCCOCCO` please. 0.0

Record request — test call for COc1ccc(-n2nc(C(F)F)cc2-c2ccc(S(C)=O)cc2)cc1 (centres undefined) 0.0

Called result for CCCCC(CC)COC(=O)CCCCCCCCC(=O)OCC(CC)CCCC (centres undefined) 0.0

Hi, sorry to bother you, what did the test record for O=c1[nH]c2ccc(S(=O)CCN3CCC(Cc4ccc(F)cc4)CC3)cc2o1 (centres undefined) ? 0.0

What call does the record list for `On1ccccc1=S` ? 0.0

Please indicate how the test categorized `CCCCCCCCCCCCCCCO` . 0.0

Per the assay record, what outcome was assigned to O=c1n(CC2CO2)c(=O)n(CC2CO2)c(=O)n1CC1CO1 (centres undefined) ? 0.0

So what was the verdict on `CCCC(=O)OCC` in this test? 0.0

Hi, sorry to bother you, what did the test record for `CC1(C)C(=O)N(Br)C(=O)N1Br` ? 0.0

Which outcome was assigned to `CC(C)c1cccc(C(C)C)c1N1C(=O)c2ccc(O)cc2C1=O` in this test? 0.0

Data origin: PubChem BioAssay (EPA / NIEHS)
